target_under_test: T1, cynomolgus monkey 4-1BB on CHO-K1 cells (cynomolgus monkey)
T1 chain: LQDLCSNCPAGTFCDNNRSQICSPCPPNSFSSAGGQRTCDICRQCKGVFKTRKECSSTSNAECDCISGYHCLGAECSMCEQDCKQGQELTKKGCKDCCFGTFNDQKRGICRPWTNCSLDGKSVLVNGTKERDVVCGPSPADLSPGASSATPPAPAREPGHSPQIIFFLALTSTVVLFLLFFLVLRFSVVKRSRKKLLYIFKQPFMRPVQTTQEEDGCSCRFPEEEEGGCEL
measurement_notes: FACS; FIG. 12L
# key: entry, value: EC50
Numeric answer only, unit nM assumed.

Reference set (3 entries):
binder="PR007300 (antibody, V domains shown) VH: EVQLVESGGGLVKPGGSLRLSCTTSGFTFSDYYMNWVRQAPGKGLEWVSYISNNGSTIYYADSVKGRFTISRDNAKNSLYLQMNSLRAEDTAVYYCARVRPGGSGNYWDWFDPWGQGTPVTVSS" readout_value=1.94
binder="PR007299 (antibody, V domains shown) VH: EVQLVESGGGLVKPGGSLRLSCAASGFTFSDYQMSWLRQAPGKGLEWVSYISSSGRTIYYADSVKGRFTISRDNAKNSVSLQMNSLRAEDTAVYYCAREGRFFPGQGTPVTVSS" readout_value=118
binder="PR007298 (antibody, V domains shown) VH: EVQLVESGGGLVKPGGSLRLSCAASGFTFSDYYMSWVRQAPGKGLEWVSYISSSGSTIDYADSVKGRFTISRDNAKNSLFLEMNSLRAEDTAVYYCAREREEVAGTLDFDNWGQGTLVTVSS" readout_value=2.33

Continue with the binder presented below.
Qu. Look up and report measured EC50 for this entry: Utomilumab (antibody, V domains shown) VH: EVQLVQSGAEVKKPGESLRISCKGSGYSFSTYWISWVRQMPGKGLEWMGKIYPGDSYTNYSPSFQGQVTISADKSISTAYLQWSSLKASDTAMYYCARGYGIFDYWGQGTLVTVSS VL: SYELTQPPSVSVSPGQTASITCSGDNIGDQYAHWYQQKPGQSPVLVIYQDKNRPSGIPERFSGSNSGNTATLTISGTQAMDEADYYCATYTGFGSLAVFGGGTKLTVLG
Ans. 0.425
